# Tested on: GST-p53 DNA binding domain (aa 92-aa 312)
# experiment: Scintillation Proximity Assay (displacement of 3H-labeled p53 binder)
# test.conditions: percentage of 3H-labeled ligand remaining bound, number in brackets = average of n
endpoint: SPA ASSAY % Residual T @ 2 ug/mL of drug (Average of) (%)

[1] CN(C)CCCNc1nc(CN(C)Cc2ccc(-c3ccccc3)cc2)nc2ccccc12
[2] COc1ccc(CN(C)Cc2nc(NCCCN(C)C)c3ccccc3n2)cc1
# returns the entry with the larger SPA ASSAY % Residual T @ 2 ug/mL of drug (Average of); inputs 1 and 2 // caller expects the label of the chosen entry
1

[a] Clc1ccc(C(c2ccc(Cl)cc2)N2CCN(Cc3nc(N4CCc5ccccc5C4)c4ccccc4n3)CC2)cc1
[b] CN(C)CCCNc1nc(CN(C)Cc2ccccc2Sc2ccc(Cl)cc2)nc2ccccc12
Lower SPA ASSAY % Residual T @ 2 ug/mL of drug (Average of): a or b ? // caller expects the label of the chosen entry
b

###

# Tested on: GST-p53 DNA binding domain (aa 92-aa 312)
# experiment: Scintillation Proximity Assay (displacement of 3H-labeled p53 binder)
# test.conditions: percentage of 3H-labeled ligand remaining bound, number in brackets = average of n
endpoint: SPA ASSAY % Residual T @ 2 ug/mL of drug (Average of) (%)

# count of solved cases: 2
molecule	measured.value
CN(C)CCCNc1nc(CN(C)Cc2ccc(Cl)cc2)nc2ccccc12 [Formula 74]	55.1
OC1CCN(c2nc(CN3CCN(C(c4ccc(Cl)cc4)c4ccc(Cl)cc4)CC3)nc3ccccc23)CC1 [Formula 51]	61.6

[I] CN(C)CCCOc1nc(CN2CCN(C(c3ccc(Cl)cc3)c3ccc(Cl)cc3)CC2)nc2ccccc12 [Formula 37]
[II] COC(=O)[C@@H](Nc1nc(CNC(=O)Nc2cccc(Br)c2)nc2ccccc12)C(C)C [Formula 58]
# returns the entry with the larger SPA ASSAY % Residual T @ 2 ug/mL of drug (Average of); inputs I and II // caller expects the label of the chosen entry
I
(I: 77.0%, II: 44.9%)

###

# Tested on: GST-p53 DNA binding domain (aa 92-aa 312)
# experiment: Scintillation Proximity Assay (displacement of 3H-labeled p53 binder)
# test.conditions: percentage of 3H-labeled ligand remaining bound, number in brackets = average of n
# Procedure: [drawing 38] (^3H at C bearing the chlorophenyl groups and the piperazinyl group), a radiolabeled small molecule which binds to p53, and the GST-p53 DNA binding domain (aa 92-aa 312), a quantitative screening assay was used to determine if various molecules comprise p53 binding activity. […] [drawing 39] and Glutathione-SPA beads (Amersham Biosciences) were incubated with mixing for 1 hour at room temperature in the presence of the compounds to be screened. The signal was read on a Microbeta. […]
endpoint: SPA ASSAY % Residual T @ 2 ug/mL of drug (Average of) (%)

molecule	measured.on	measured.value
CN(C)CCCNc1nc(CN(C)Cc2cccc3ccccc23)nc2ccccc12 [Formula 82]	GST-p53 DNA binding domain (aa 92-aa 312)	52.9
CC(CCN(C)Cc1nc(NCCCN(C)C)c2ccccc2n1)c1ccccc1 (stereo not drawn) [Formula 79]	GST-p53 DNA binding domain (aa 92-aa 312)	67.6
COc1ccc(/C=C/c2nc(NCCCN(C)C)c3ccccc3n2)cc1 [Formula 114]	GST-p53 DNA binding domain (aa 92-aa 312)	61.3
CN(C)CCCNc1nc(CN(C)Cc2ccc(C#Cc3ccccc3)cc2)nc2ccccc12 [Formula 92]	GST-p53 DNA binding domain (aa 92-aa 312)	61.1
CN(C)CCCNc1nc(CN(C)Cc2cccc(C#N)c2)nc2ccccc12 [Formula 69]	GST-p53 DNA binding domain (aa 92-aa 312)	50.9
COc1ccc(Cl)cc1NC(=O)NCc1nc(N[C@H](C(N)=O)C(C)C)c2ccccc2n1 [Formula 60]	GST-p53 DNA binding domain (aa 92-aa 312)	60.0
